# study system: other members of the PDE family (Homo sapiens, UniProt O00408)
# Sequence (O00408 whole entry): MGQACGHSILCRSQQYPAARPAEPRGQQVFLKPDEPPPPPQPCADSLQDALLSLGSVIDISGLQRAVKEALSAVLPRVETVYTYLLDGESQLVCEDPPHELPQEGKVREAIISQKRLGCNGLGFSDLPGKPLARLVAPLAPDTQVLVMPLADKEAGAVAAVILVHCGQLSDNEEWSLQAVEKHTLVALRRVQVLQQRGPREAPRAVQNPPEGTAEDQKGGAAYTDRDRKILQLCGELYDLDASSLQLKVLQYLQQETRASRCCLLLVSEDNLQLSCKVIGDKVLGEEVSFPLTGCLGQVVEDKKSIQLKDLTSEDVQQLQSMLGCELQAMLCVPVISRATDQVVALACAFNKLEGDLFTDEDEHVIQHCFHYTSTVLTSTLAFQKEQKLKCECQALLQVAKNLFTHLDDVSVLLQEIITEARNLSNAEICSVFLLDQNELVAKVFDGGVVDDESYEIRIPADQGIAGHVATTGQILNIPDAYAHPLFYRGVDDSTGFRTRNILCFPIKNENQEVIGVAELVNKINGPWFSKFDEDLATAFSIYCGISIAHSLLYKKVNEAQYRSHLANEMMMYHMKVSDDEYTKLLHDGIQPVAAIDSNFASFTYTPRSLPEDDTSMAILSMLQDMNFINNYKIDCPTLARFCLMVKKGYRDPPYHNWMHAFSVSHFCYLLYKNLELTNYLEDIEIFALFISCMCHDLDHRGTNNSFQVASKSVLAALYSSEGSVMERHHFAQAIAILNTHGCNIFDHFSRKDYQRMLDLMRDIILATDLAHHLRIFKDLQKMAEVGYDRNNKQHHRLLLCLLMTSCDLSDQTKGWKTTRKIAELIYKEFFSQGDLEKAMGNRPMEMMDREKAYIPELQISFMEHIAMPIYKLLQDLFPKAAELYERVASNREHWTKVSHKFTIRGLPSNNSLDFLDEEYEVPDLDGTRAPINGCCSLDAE
# test: In vitro PDE selectivity assay (SPA), other members of the PDE family (protocols in Table A)
# Type: biochemical
# condition info: hPDE2A; read-out: PDE 2A (expressed as pIC50) (converted)
Consider the following compounds; for each one, report its IC50.

| compound | study system | IC50 |
| --- | --- | --- |
| COCCc1ccc(-c2c(C3CC3)nc3c(-c4ccncc4)ccnn23)cn1 [compound 10] | other members of the PDE family (Homo sapiens, UniProt O00408) | 6.61 µM |
| COCCc1ccc(-c2c(C3CC3)nc3c(N4CCOCC4)cc(C(F)(F)F)nn23)cn1 [compound 85] | other members of the PDE family (Homo sapiens, UniProt O00408) | > 10 µM |
| COCCn1cc(-c2c(C)nc3c(-c4ccncc4)cc(Cl)nn23)cn1 [compound 147] | other members of the PDE family (Homo sapiens, UniProt O00408) | > 10 µM |
| COCCOc1ccc(-c2c(C3CC3)nc3c(-c4ccncc4)cc(C)nn23)cn1 [compound 72] | other members of the PDE family (Homo sapiens, UniProt O00408) | 1.05 µM |
| CC(C)Cn1cc(-c2c(C3CC3)nc3c(-c4ccncc4)ccnn23)cn1 [compound 148] | other members of the PDE family (Homo sapiens, UniProt O00408) | 4.37 µM |

State recorded IC50 for all listed compounds.
1. Cc1cc(N2CCOCC2)c2nc(C3CC3)c(-c3ccc(N4CCNCC4)nc3)n2n1 [compound 100]
2. COCCn1cc(-c2c(C)nc3c(-c4ccncc4)cc(C)nn23)cn1 [compound 134]

Output:
["> 10 µM", "8.13 µM"]

State recorded IC50 for all listed compounds.
1. Cc1cc(N2CCOCC2)c2nc(C)c(-c3ccc(C4CC4)nc3)n2n1 [compound 110]
2. Cc1nc2c(N3CCOCC3)ccnn2c1-c1ccnc(N2CCOCC2)c1 [compound 91]
3. Cc1nc2c(N3CCOCC3)ccnn2c1-c1cnn(CC(C)C)c1 [compound 35]
4. COC(C)(C)Cc1ccc(-c2c(C)nc3c(-c4ccncc4)ccnn23)cn1 [compound 7]
5. COCCn1cc(-c2c(C)nc3c(N4CCOCC4)cc(C)nn23)cn1 [compound 133]
6. COCCOc1ccc(-c2c(C)nc3c(-c4ccncc4)ccnn23)cn1 [compound 21]

Output:
["> 10 µM", "> 10 µM", "> 10 µM", "> 10 µM", "> 10 µM", "47.9 µM"]
